Catalogue of remaining activity at 1000 µM values
# Tested target: human recombinant PARP2 (Homo sapiens)
# Construct: made in house
# Sequence (Q9UGN5 whole entry): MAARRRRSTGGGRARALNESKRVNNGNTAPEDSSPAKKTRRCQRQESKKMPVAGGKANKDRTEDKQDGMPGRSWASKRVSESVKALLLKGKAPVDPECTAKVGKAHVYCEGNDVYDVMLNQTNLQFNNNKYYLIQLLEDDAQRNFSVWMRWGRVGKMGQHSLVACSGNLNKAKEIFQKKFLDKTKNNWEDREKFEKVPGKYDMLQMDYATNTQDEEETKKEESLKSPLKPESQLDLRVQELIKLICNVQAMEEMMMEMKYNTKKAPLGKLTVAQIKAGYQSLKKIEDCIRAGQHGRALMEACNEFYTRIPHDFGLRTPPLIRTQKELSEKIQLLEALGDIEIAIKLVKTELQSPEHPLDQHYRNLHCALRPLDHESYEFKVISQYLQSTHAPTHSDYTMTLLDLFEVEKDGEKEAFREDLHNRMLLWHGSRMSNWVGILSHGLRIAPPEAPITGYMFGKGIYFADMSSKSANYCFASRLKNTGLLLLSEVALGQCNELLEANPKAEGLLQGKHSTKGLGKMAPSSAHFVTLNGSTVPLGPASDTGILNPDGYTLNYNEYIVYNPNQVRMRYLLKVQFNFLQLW
# Test name: PARP2 activity by inclusion of α-[32P]-NAD+ in poly(ADP-ribose)
# Type: biochemical
# Run conditions: in the presence of 1 mM compound; read-out: Residual activity of PARP2

| Compound | remaining activity at 1000 µM, % |
| --- | --- |
| OC[C@H]1O[C@@H](n2cnc3c(NCc4c5ccccc5cc5ccccc45)ncnc32)[C@H](O)[C@@H]1O | 104 |
| OC[C@H]1O[C@@H](n2cnc3c(NC(c4ccccc4)(c4ccccc4)c4ccccc4)ncnc32)[C@H](O)[C@@H]1O | 107 |
| O=C(OC[C@H]1O[C@@H](n2cnc3c(O)ncnc32)[C@H](OC(=O)c2ccccc2)[C@@H]1OC(=O)c1ccccc1)c1ccccc1 | 96 |
| O[C@@H]1[C@H](O)[C@@H](COC(c2ccccc2)(c2ccccc2)c2ccccc2)O[C@H]1n1cnc2c(NC(c3ccccc3)(c3ccccc3)c3ccccc3)ncnc21 | 113 |
| Nc1nc2c(ncn2[C@H]2C[C@H](O)[C@@H](CO)O2)c(=O)[nH]1 [compound 2, reference compound] | 87 |
| Nc1ncnc2c1ncn2[C@@H]1O[C@H](CO)[C@@H](O)[C@H]1O [compound 3, reference compound] | 95 |
